assaySystem: Aromatase (Homo sapiens) (UniProt P11511)
Sequence (P11511 whole entry, looked up): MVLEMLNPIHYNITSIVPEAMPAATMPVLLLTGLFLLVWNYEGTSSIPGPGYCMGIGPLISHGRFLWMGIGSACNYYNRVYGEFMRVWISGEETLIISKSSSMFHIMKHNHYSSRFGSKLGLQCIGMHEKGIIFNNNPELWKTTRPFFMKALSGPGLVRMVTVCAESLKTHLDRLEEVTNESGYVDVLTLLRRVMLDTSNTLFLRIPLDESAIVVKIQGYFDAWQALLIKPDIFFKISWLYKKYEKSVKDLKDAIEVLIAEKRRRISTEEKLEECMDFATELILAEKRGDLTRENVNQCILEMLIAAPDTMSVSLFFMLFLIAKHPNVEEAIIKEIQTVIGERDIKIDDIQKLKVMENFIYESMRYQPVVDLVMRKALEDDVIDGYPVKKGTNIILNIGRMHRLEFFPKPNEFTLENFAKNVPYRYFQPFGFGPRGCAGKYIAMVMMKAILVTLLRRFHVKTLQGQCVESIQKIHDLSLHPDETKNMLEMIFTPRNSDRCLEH
testSummary: qHTS assay to identify aromatase inhibitors (AID 743083); also: nearly all actives have a fitted effect of over 55% in size
conditionSummary: MCF-7 aro ERE, testosterone-driven ERE luciferase, 24 h; series mostly up to 70.3 µM
Records with an inconclusive call do not appear. Calls of active or inactive are those of the source. Calls follow the shape of the dose curve; as a rule, active = well fitted inhibition curve with a large enough effect in the repeat runs; inconclusive = weak or mixed curves; inactive = no such curve, though single readings can be large or run the other way.
Possible outcomes: 1.0 for active, 0.0 for inactive

# compound, qualitativeLabel
data = [
    ("[O-][n+]1ccccc1SSc1cccc[n+]1[O-]", 1.0),
    ("CCOc1nc2cccc(C(=O)OC(C)OC(=O)OC3CCCCC3)c2n1Cc1ccc(-c2ccccc2-c2nn[nH]n2)cc1 (stereo not given)", 1.0),
    ("O=C1C=CC(=O)N1c1ccc(Cc2ccc(N3C(=O)C=CC3=O)cc2)cc1", 1.0),
    ("Cc1nc(-c2ccc3c(c2)CCN(CCC2CCC(NC(=O)/C=C/c4ccc(F)cc4)CC2)CC3)no1 (stereo not given)", 0.0),
    ("CCc1oc2ccccc2c1C(=O)c1cc(Br)c(O)c(Br)c1", 0.0),
    ("CCCCCCCCCCCCCCCCCC[N+](C)(C)Cc1ccccc1", 1.0),
    ("NNC(=O)c1cccc(C(=O)NN)c1", 0.0),
    ("C[n+]1ccn(Cc2ccccc2)c1", 0.0),
    ("Oc1cc2ccccc2c2ccccc12", 1.0),
    ("CCCC(c1cc(C(C)(C)C)c(O)cc1C)c1cc(C(C)(C)C)c(O)cc1C", 1.0),
    ("CSc1ccc(/C=C2/C(C)=C(CC(=O)O)c3cc(F)ccc32)cc1", 0.0),
    ("C[C@H](CCC(=O)O)[C@H]1CC[C@H]2[C@@H]3CC[C@@H]4C[C@H](O)CC[C@]4(C)[C@H]3CC[C@]12C", 0.0),
    ("Oc1ccc(C2(c3ccc(O)cc3)CC3CC2C2CCCC32)cc1 (stereo not given)", 1.0),
    ("CSc1ccc(C(=O)c2[nH]c(=O)[nH]c2C)cc1", 0.0),
    ("Cc1cccc(CN2CCN(C(c3ccccc3)c3ccc(Cl)cc3)CC2)c1 (stereo not given)", 0.0),
    ("CO[Si](CCCNc1ccccc1)(OC)OC", 0.0),
    ("O=C(O)c1ccc(Cl)c(Cl)c1", 0.0),
    ("CN(C)c1ccc(SC#N)cc1", 0.0),
    ("O=C(c1ccc(F)cc1)C1CCN(CCn2c(=O)[nH]c3ccccc3c2=O)CC1", 0.0),
    ("O=C1c2ccccc2Cc2ccccc21", 0.0),
    ("[Cl][Au]([Cl])[Cl]", 1.0),
    ("CN1CCN(CCC(=O)N2c3ccccc3Sc3ccc(C(F)(F)F)cc32)CC1", 0.0),
    ("CC1=C(/C=C/C(C)=C/C=C/C(C)=C/C=O)C(C)(C)CCC1", 1.0),
    ("CCC(C)(C)C1CCCCC1OC(C)=O (stereo not given)", 0.0),
    ("O=C(c1ccc(O)cc1O)c1ccc(O)cc1O", 0.0),
    ("CCCCCCCC[P+](CCCCCCCC)(CCCCCCCC)CCCCCCCC", 1.0),
    ("CCCCCCCCCOC(=O)c1ccc(O)cc1", 1.0),
    ("Cn1cc(C(=O)[C@@H]2CCc3nc[nH]c3C2)c2ccccc21", 0.0),
    ("C1CCCC1", 0.0),
    ("COc1c(C)c2c(c(O)c1C/C=C(\\C)CCC(=O)O)C(=O)OC2", 0.0),
    ("CN(C)C(=O)C1(N2CCCCC2)CCN(CC[C@@]2(c3ccc(Cl)c(Cl)c3)CN(C(=O)c3ccccc3)CCO2)CC1", 1.0),
    ("CC(NN)c1ccccc1 (stereo not given)", 0.0),
    ("O=Cc1cc(O)ccc1Br", 0.0),
    ("CC[C@H]1O[C@]2(CC[C@@H]1C)C[C@@H]1C[C@@H](C/C=C(\\C)C[C@@H](C)/C=C/C=C3\\CO[C@@H]4[C@H](O)C(C)=C[C@@H](C(=O)O1)[C@]34O)O2", 1.0),
    ("CC(=O)N1CCN(c2ccc(OC[C@H]3CO[C@](Cn4ccnc4)(c4ccc(Cl)cc4Cl)O3)cc2)CC1", 0.0),
    ("CC1=C(C(=O)OC(C)C)C(c2cccc([N+](=O)[O-])c2)C(C(=O)OC2CN(C(c3ccccc3)c3ccccc3)C2)=C(N)N1 (stereo not given)", 1.0),
    ("CCOC(=O)O[C@]1(C(=O)OCCl)CC[C@H]2[C@@H]3CCC4=CC(=O)C=C[C@]4(C)[C@H]3[C@@H](O)C[C@@]21C", 0.0),
    ("CCCCCCCCCCCCCCCC(=O)OC[C@H](O)[C@H]1OC(=O)C(O)=C1O", 0.0),
    ("CCCCCCCC/C=C/CCCCCCCC1=NCCN1CCO", 1.0),
    ("Cc1onc(-c2c(Cl)cccc2Cl)c1C(=O)N[C@@H]1C(=O)N2[C@@H]1SC(C)(C)[C@@H]2C(=O)O", 0.0),
    ("OCCCCCCCCCCCCBr", 0.0),
    ("OCc1c[nH]c2ccccc12", 1.0),
    ("CCN(CCC#N)c1ccc(N=Nc2c(Cl)cc([N+](=O)[O-])cc2Cl)cc1", 0.0),
    ("C=C(C)C(=O)OCC(O)COc1ccc(C(C)(C)c2ccc(OCC(O)COC(=O)C(=C)C)cc2)cc1 (stereo not given)", 1.0),
    ("CCCCCCCCCCCC[N+](C)(C)CCCCCCCCCCCC", 1.0),
]
